target: hFASN enzyme (full length) (Homo sapiens); construct: 10 μL hFASN enzyme (full length, 300 ng, purified in house); made in house; experiment: Fatty Acid Synthase (FASN) inhibition scintillation proximity assay; type: biochemical; details: read-out: Human FASN pIC50 (converted)
Sequence (P49327 whole entry): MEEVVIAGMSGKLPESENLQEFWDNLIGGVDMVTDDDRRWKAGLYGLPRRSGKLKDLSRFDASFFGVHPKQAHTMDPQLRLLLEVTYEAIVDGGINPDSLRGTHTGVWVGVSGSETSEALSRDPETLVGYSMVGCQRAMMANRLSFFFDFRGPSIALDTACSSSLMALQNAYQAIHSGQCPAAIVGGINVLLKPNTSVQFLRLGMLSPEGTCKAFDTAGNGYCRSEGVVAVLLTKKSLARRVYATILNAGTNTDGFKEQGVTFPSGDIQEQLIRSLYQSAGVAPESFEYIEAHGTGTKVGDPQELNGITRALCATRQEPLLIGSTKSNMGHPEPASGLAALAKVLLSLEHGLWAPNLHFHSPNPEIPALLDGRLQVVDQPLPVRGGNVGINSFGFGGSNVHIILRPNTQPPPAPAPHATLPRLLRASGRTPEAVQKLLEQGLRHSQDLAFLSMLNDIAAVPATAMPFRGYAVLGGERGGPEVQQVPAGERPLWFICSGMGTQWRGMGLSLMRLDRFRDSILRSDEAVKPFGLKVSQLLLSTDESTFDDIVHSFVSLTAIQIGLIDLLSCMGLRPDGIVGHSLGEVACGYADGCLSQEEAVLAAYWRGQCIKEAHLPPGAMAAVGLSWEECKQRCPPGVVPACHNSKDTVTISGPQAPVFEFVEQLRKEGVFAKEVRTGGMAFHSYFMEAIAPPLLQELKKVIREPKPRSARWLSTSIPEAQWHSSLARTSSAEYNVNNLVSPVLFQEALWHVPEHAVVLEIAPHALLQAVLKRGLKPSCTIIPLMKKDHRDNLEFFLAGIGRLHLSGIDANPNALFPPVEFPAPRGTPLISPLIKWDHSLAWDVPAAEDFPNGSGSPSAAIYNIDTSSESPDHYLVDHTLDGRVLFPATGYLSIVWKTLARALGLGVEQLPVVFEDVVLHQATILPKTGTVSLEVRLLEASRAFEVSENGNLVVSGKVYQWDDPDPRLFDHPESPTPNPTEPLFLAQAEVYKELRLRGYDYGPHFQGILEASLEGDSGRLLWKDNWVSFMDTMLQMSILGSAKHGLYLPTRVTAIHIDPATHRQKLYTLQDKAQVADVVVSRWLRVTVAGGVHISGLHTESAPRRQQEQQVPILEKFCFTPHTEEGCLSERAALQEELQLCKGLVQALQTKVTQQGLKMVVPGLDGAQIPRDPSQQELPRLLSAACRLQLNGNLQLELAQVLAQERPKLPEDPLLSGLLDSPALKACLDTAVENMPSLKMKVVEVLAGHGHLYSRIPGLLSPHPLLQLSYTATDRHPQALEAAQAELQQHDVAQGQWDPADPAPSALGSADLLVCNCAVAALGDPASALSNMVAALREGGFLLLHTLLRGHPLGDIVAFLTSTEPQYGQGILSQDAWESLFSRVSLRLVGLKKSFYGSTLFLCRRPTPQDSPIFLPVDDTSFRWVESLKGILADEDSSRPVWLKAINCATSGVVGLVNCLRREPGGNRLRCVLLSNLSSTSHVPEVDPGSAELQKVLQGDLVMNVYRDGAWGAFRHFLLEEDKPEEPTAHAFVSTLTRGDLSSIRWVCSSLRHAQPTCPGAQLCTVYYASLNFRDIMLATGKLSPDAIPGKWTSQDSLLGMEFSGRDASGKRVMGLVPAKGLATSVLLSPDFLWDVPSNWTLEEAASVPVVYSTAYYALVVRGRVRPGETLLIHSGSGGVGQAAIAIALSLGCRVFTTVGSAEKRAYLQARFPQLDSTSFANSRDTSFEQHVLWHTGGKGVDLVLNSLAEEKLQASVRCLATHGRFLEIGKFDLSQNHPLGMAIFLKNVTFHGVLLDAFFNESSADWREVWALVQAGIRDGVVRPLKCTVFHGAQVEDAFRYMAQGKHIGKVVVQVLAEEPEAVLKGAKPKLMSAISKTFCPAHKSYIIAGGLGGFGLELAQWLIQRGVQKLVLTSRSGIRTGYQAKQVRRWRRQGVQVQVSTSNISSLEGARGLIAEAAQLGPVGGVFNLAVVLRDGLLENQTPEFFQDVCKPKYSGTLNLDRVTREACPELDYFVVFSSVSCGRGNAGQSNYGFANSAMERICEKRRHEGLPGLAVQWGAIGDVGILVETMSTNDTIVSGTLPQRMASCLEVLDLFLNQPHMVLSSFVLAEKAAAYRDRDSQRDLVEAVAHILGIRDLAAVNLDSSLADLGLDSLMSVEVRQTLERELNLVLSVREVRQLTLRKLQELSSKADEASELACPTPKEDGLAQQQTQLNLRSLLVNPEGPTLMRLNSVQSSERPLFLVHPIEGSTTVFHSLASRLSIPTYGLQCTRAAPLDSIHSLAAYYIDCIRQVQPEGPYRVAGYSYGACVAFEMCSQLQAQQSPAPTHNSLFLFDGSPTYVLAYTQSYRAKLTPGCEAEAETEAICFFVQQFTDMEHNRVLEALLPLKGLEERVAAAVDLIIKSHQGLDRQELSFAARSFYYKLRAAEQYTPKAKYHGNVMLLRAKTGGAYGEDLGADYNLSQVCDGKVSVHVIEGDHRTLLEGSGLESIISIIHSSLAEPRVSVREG
Please provide measured IC50 for the entries that follow.
Give bare numbers, in nM.

These recorded examples may help you get a feel for the data.
[
  {
    "molecule": "O=C(C1CC1)N1CC(CN2C(=O)C3(CC3)N=C2c2ccc(-c3ccc(-c4cnn(C5CC5)c4)cc3)cc2F)C1 [compound 328]",
    "units-symbol": "nM",
    "IC50": 31.6
  },
  {
    "molecule": "COCCN1CCC2(CC1)N=C(c1ccc(-c3ccc4[nH]ccc4c3)cc1)N(C[C@@H]1CCN(C(=O)C3CC3)C1)C2=O [compound 747]",
    "units-symbol": "nM",
    "IC50": 85.1
  },
  {
    "molecule": "Cc1cc(-c2nn(C)c3ccccc23)ccc1C1=NC2(CC2)C(=O)N1CC1CN(C(=O)C2(C)CC2)C1 [compound 600]",
    "units-symbol": "nM",
    "IC50": 417
  },
  {
    "molecule": "Cc1cc2cc(-c3ccc(C4=NC5(CC5)C(=O)N4CC4CN(C(=O)C5CC5)C4)c(C)c3)ccc2s1 [compound 391]",
    "units-symbol": "nM",
    "IC50": 129
  },
  {
    "molecule": "Cn1ccc(-c2ccc(-c3ccc(C4=NC5(CC5)C(=O)N4CC4CN(C(=O)C5CC5)C4)cc3)cc2)n1 [compound 542]",
    "units-symbol": "nM",
    "IC50": 692
  }
]

Give IC50 for each listed item.
1. O=C(C1CC1)N1CC(CN2C(=O)C3(CCOCC3)N=C2c2ccc(-c3ccc4cccnc4c3)cc2)C1 [compound 698]
2. COc1ccc2cc(-c3ccc(C4=NC5(CC5)C(=O)N4CC4CN(C(=O)C5(O)CC5)C4)c(F)c3)ccc2c1 [compound 366]
3. O=C(C1CC1)N1CC[C@@H](CN2C(=O)C3(CC3)N=C2c2ccc(-c3ccc4ncccc4c3)cc2F)C1 [compound 248]
4. Cc1cc2cc(-c3ccc(C4=NC5(CC5)C(=O)N4C[C@@H]4CCN(C(=O)C5CC5)C4)c(F)c3)ccc2o1 [compound 242]

Solution:
1. 251
2. 61.7
3. 69.2
4. 19.1

Exercise: What IC50 value was documented for this molecule, Cc1cc2cc(-c3ccc(C4=NC5(CC5)C(=O)N4C[C@@H]4CCN(C(=O)C5CC5)C4)c(F)c3)ccc2s1 [compound 243] ?
Solution: 22.4

Sourced from patent US10077261B2
